Molecular target: BRD7 (Homo sapiens, UniProt Q9NPI1)
Sequence (Q9NPI1 131-235 limits assumed): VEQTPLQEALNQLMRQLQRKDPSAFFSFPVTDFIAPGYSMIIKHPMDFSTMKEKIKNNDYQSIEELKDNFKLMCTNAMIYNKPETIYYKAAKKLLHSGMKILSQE
Assay: BROMOscan ligand-binding assay
property-measured: pKd
Schema: pKd number; meaning minus log10 of the concentration expressed in molar units.

Which pKd is listed for CCCS(=O)(=O)c1nc(NC2CC2)cc(-c2ccc3c(ccn3C3CC(C)(C)NC(C)(C)C3)c2)n1 ?
5.17

###

Target: BRD4(2) (Homo sapiens, UniProt O60885)
Assay: BROMOscan ligand-binding assay
Conditions: BROMOscan Gene Symbol BRD4(2)
property-measured: Kd (nM)
Field: numeric (nM). Do not append units.

State its Kd on BRD4(2) (Homo sapiens, UniProt O60885): Cc1noc(C)c1-c1ccc2c(c1)nc(CCc1ccccc1)n2CCN1CCOCC1
2700

###

Target: BAZ2A (Homo sapiens)
Sequence (Q9UIF9 1793-1897 limits assumed): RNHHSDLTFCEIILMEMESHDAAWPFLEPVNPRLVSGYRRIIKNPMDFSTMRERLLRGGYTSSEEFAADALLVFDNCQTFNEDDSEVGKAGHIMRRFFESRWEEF
Test: BROMOscan ligand-binding assay
property-measured: pKd
Schema: pKd number; meaning minus log10 of the concentration expressed in molar units.

CCC(=O)N1CCOc2c(cc(-c3ccc(OC)c(OC)c3)cc2OCC2CCCN(C)C2)C1 (centres unmarked) [I-CBP112]    4.15

Which pKd is listed for COc1ccc(CCc2nc3cc(-c4c(C)noc4C)ccc3n2C[C@H](C)N2CCOCC2)cc1Cl [SGC-CBP30] ?
4.16

###

Target: BRD3(1,2) (Homo sapiens, UniProt Q15059)
Sequence (Q15059 24-416 limits assumed): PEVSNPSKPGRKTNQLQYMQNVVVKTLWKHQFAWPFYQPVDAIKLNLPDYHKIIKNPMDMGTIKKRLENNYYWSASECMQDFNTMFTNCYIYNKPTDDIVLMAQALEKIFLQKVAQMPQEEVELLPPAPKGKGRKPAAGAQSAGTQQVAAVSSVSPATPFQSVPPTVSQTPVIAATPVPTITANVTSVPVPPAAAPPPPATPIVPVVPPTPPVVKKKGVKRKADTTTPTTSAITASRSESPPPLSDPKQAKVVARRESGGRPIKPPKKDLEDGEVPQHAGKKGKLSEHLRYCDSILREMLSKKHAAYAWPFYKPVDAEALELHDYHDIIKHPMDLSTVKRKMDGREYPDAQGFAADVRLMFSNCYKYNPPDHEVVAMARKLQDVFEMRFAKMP
Experiment: BROMOscan ligand-binding assay
Conditions: BROMOscan, BRD3(1,2)
property-measured: Kd (µM)
Field: numeric (µM). Do not append units.

Which Kd is listed for Cc1cc(=O)n(C)c2cc(N3C(=O)CC[C@H](NS(=O)(=O)CC(C)C)[C@H]3c3ccc(Cl)cc3)ccc12 [LP-99] ?
47

###

Target: SND1 (Homo sapiens, UniProt Q7KZF4)
Sequence (Q7KZF4 729-787 limits assumed): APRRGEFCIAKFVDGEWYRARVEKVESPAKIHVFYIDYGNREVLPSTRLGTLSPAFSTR
Test: Temperature shift assay (non-BRD reader domains)
Assay type: binding
Conditions: 10µM compound
property-measured: Tm (C) 10µM, temperature shift
Answer by giving the amount and then stating its unit.

Field: example entries. Status: answers known.
Cc1c(NC(=O)c2cc(C(N)=O)nc3cc(F)ccc23)c(C(F)(F)F)nn1Cc1ccc(C(C)(C)C)cc1    -1.0 Kelvin
CO[C@H]1CNC[C@@H](OCC2CCC(F)(F)CC2)[C@@H]1Nc1ncc(-c2cncc(C)c2)c2cc(C)c(=O)[nH]c12    -0.5 Kelvin
Cc1nnc2c3ccccc3c(N[C@@H](C)[C@H](c3ccccc3)N(C)C)nn12    -1.0 Kelvin
CN(C)CCCOc1ccc(-c2cc(NCCCn3cccn3)nc(S(C)(=O)=O)n2)cc1    -0.5 Kelvin
Cc1c(NC(=O)c2cc(C(N)=O)nc3cc(F)ccc23)c(C(F)(F)F)nn1Cc1ccc(C#N)cc1    -0.9 Kelvin
CCC(=O)N1CCOc2c(cc(-c3ccc(OC)c(OC)c3)cc2OCC2CCCN(C)C2)C1 (centres unmarked)    -0.7 Kelvin

Which Tm (C) 10µM, temperature shift is listed for COc1cc(Cl)c(C(=O)N[C@@H](CN[C@H]2CC[C@@H](N)CC2)Cc2ccc(C#N)cc2)cc1-c1ccc(CN[C@H](C)c2ccc(C)cc2)o1 ?
-1.6 Kelvin

Which Tm (C) 10µM, temperature shift is listed for CN1C[C@H](Nc2cnn(C)c(=O)c2Br)C[C@H](c2ccccc2)C1 ?
-1.0 Kelvin

###

Molecular target: GCN5L2 (Homo sapiens, UniProt Q92830)
Sequence (Q92830 728-832 limits assumed): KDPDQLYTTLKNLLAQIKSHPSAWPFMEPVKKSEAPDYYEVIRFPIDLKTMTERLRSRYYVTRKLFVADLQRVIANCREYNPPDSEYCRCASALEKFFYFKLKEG
Test: BROMOscan ligand-binding assay
property-measured: Kd

Which Kd is listed for CCCS(=O)(=O)c1nc(NC2CC2)cc(-c2ccc3c(ccn3C3CC(C)(C)NC(C)(C)C3)c2)n1 ?
> 30 µM

###

Molecular target: ATAD2B (Homo sapiens, UniProt Q9ULI0)
Sequence (Q9ULI0 951-1066 limits assumed): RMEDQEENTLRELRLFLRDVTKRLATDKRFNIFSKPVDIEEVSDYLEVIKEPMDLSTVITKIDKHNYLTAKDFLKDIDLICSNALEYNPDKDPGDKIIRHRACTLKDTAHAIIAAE
Assay: BROMOscan ligand-binding assay
Details: KD, ATAD2B
Recorded measurements of Kd, one per entry

O=C(O)c1ccccc1O [Salicylic Acid]    > 14 mM

Next up:
State its Kd on ATAD2B (Homo sapiens, UniProt Q9ULI0): O=C(C=CN1CC2CC1CN2c1ccccn1)c1ccccc1O (centres unmarked) [PFI-3]
> 0.1 mM

###

Molecular target: UniProtKB Q9ULI0
Experiment: BROMOscan ligand-binding assay
Details: BROMOscan, ATAD2B
pKd: −log10 of the molar value.
property-measured: pKd

Which pKd is listed for O=C(C=CN1[C@H]2CC[C@@H]1c1ncnc(NC3CC3)c1C2)c1ccccc1O [PFI-3 D1] ?
< 4.52

###

Molecular target: G9A (Homo sapiens, UniProt Q96KQ7)
Construct: purchased DiscoverX BROMOscan (bromodomains); SGC in-house methyltransferase panel
Sequence (Q96KQ7 whole entry): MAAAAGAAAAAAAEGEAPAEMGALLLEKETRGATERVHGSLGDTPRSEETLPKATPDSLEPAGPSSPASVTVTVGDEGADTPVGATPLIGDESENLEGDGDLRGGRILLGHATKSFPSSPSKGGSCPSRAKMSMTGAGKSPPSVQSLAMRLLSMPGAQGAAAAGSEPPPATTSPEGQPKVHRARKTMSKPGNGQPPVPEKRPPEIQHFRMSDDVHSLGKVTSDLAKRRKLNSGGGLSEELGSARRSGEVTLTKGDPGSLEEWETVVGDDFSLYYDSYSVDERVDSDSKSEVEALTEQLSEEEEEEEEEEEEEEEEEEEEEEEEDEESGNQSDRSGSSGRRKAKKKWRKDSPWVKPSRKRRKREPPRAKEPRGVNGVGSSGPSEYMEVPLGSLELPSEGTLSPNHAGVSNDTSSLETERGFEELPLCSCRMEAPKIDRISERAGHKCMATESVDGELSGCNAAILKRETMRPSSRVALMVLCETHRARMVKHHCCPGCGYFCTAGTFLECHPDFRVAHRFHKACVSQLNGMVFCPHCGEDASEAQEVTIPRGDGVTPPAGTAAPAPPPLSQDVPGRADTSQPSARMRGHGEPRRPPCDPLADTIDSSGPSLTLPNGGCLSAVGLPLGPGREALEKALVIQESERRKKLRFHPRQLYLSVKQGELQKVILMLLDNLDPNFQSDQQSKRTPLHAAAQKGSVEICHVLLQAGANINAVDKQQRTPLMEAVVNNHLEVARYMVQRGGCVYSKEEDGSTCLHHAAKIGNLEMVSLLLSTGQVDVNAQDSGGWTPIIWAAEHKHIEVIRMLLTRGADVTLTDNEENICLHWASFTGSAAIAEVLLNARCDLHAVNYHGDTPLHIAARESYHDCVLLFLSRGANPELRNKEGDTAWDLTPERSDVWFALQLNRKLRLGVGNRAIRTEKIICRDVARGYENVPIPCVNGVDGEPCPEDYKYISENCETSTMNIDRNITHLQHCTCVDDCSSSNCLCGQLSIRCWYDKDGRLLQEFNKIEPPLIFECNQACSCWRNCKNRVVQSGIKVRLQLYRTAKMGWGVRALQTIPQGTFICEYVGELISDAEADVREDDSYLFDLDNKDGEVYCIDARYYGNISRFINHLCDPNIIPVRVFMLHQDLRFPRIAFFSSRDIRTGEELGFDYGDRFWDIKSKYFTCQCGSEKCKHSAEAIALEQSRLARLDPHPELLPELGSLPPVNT
Assay: Methyl transferase scintillation proximity assay
Format: biochemical
Conditions: average of two measurements, read-out: MTases Inhibition (%)
property-measured: inhibition at 10 µM (%)
Field: numeric (%). Do not append units.

Field: example entries. Status: answers known.
Cc1c(NC(=O)c2cc(C(N)=O)nc3cc(F)ccc23)c(C(F)(F)F)nn1Cc1ccc(C#N)cc1 [BAY-876]    -3
Cc1c(NC(=O)c2cc(C(N)=O)nc3cc(F)ccc23)c(C(F)(F)F)nn1Cc1ccc(C(C)(C)C)cc1 [BAY-588]    3
CN1C[C@H](Nc2cnn(C)c(=O)c2Br)C[C@H](c2ccccc2)C1 [GSK4027]    1
Cc1nnc2c3ccccc3c(N[C@@H](C)[C@H](c3ccccc3)N(C)C)nn12 [L-Moses]    -3
CN(C)CCCOc1ccc(-c2cc(NCCCn3cccn3)nc(S(C)(=O)=O)n2)cc1 [TP-238]    7
CO[C@H]1CNC[C@@H](OCC2CCC(F)(F)CC2)[C@@H]1Nc1ncc(-c2cncc(C)c2)c2cc(C)c(=O)[nH]c12 [GSK8814]    -2

Next up:
Which inhibition at 10 µM is listed for COc1cc(Cl)c(C(=O)N[C@@H](CN[C@H]2CC[C@@H](N)CC2)Cc2ccc(C#N)cc2)cc1-c1ccc(CN[C@H](C)c2ccc(C)cc2)o1 [BAY-850] ?
7

###

Target: UniProt:Q92830
Test: Histone acetyltransferase (HAT) activity assay;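 also: selectivity screen of BRD probe compounds across a panel of histone acetyltransferases, HAT activity in % with compound at 1 or 10 µM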
Assay type: biochemical
Settings: 10µM; read-out: HATs Activity (%)
Sequence (Q92830 whole entry, species assumed): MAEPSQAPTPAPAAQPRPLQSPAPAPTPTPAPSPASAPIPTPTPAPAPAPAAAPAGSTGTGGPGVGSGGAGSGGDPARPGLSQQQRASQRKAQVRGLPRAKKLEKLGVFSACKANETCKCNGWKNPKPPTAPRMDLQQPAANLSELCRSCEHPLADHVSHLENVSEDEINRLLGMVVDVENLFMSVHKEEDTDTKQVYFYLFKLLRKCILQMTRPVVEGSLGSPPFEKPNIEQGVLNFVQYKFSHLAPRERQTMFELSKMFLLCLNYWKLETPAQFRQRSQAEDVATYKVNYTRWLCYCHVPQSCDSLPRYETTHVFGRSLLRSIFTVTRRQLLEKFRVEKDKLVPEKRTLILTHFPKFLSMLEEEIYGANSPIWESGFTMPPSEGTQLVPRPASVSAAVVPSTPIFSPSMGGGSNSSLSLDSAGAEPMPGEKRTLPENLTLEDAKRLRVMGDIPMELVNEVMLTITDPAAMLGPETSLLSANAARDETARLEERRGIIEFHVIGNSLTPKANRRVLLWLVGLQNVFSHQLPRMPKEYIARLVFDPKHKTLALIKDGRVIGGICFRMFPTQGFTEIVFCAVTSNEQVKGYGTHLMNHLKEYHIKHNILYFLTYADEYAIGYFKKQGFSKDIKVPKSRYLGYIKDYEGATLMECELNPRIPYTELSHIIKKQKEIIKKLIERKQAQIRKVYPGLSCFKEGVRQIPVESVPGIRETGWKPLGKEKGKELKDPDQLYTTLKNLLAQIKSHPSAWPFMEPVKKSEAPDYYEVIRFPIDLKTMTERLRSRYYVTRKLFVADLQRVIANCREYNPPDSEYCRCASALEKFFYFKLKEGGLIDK
property-measured: activity at 10 µM (%)
Field: numeric (%). Do not append units.

Field: example entries. Status: answers known.
Cc1cc2c(cc1N1C(=O)c3cccc4c(CCCO)ccc(c34)C1=O)n(C)c(=O)n2C [BAY-299]    103
CN1C[C@H](Nc2cnn(C)c(=O)c2Br)C[C@H](c2ccccc2)C1 [GSK4027]    102
Cc1c(NC(=O)c2cc(C(N)=O)nc3cc(F)ccc23)c(C(F)(F)F)nn1Cc1ccc(C(C)(C)C)cc1 [BAY-588]    95

Which activity at 10 µM is listed for CC(=O)c1cc(-c2cc(C(=O)NC3CC3)ccc2C)c2ncccn12 [TP-472] ?
92

Which activity at 10 µM is listed for COc1ccc(CCc2nc3cc(-c4c(C)noc4C)ccc3n2C[C@H](C)N2CCOCC2)cc1Cl [SGC-CBP30] ?
101

Which activity at 10 µM is listed for CN(C)CCCOc1ccc(-c2cc(NCCCn3cccn3)nc(S(C)(=O)=O)n2)cc1 [TP-238] ?
92

Which activity at 10 µM is listed for O=C(C=CN1CC2CC1CN2c1ccccn1)c1ccccc1O (stereo not drawn) [PFI-3] ?
101

Which activity at 10 µM is listed for Cc1nnc2c3ccccc3c(N[C@@H](C)[C@H](c3ccccc3)N(C)C)nn12 [L-Moses] ?
95

Which activity at 10 µM is listed for COc1cc(-c2cn(C)c(=O)c3cnccc23)c(OC)cc1CN(C)C [BI-9564] ?
100

###

Molecular target: BRD9 (Homo sapiens, UniProt Q9H8M2)
Sequence (Q9H8M2 136-240 limits assumed): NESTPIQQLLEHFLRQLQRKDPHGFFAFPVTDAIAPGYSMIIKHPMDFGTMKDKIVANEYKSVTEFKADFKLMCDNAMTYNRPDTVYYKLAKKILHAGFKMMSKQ
Assay: BROMOscan ligand-binding assay
property-measured: pKd
Schema: pKd number; meaning minus log10 of the concentration expressed in molar units.

State its pKd on BRD9 (Homo sapiens, UniProt Q9H8M2): CCCS(=O)(=O)c1nc(NC2CC2)cc(-c2ccc3c(ccn3C3CC(C)(C)NC(C)(C)C3)c2)n1
5.68

###

Biological target: PRMT7 (Homo sapiens, UniProt Q9NVM4)
Construct: purchased DiscoverX BROMOscan (bromodomains); SGC in-house methyltransferase panel
Sequence (Q9NVM4 1-692): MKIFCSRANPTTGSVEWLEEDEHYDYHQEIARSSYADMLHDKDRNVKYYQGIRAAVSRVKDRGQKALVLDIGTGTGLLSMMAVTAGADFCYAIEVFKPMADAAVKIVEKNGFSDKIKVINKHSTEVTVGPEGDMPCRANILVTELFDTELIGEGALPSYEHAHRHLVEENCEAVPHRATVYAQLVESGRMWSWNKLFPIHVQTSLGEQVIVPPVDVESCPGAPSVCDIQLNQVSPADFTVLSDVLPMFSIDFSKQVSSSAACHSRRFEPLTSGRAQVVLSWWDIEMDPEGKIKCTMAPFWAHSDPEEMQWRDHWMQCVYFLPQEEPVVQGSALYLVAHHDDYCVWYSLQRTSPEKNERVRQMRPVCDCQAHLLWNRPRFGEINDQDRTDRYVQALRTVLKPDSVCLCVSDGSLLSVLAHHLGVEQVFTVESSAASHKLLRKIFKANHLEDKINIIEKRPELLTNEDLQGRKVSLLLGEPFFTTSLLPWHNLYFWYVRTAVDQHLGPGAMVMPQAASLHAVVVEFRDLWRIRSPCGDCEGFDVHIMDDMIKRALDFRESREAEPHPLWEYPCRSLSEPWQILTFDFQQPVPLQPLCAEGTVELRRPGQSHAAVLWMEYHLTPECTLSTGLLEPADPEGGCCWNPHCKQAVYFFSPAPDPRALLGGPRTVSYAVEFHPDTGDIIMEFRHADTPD
Experiment: Methyl transferase scintillation proximity assay
Assay type: biochemical
Settings: average of two measurements, read-out: MTases Inhibition (%)
If the reported inhibition at 10 µM equals or exceeds 10%, assign Criterion met. If not, assign Criterion not met.

COc1cc(Cl)c(C(=O)N[C@@H](CN[C@H]2CC[C@@H](N)CC2)Cc2ccc(C#N)cc2)cc1-c1ccc(CN[C@H](C)c2ccc(C)cc2)o1    Criterion not met
CN(C)CCCOc1ccc(-c2cc(NCCCn3cccn3)nc(S(C)(=O)=O)n2)cc1    Criterion not met
CN1C[C@H](Nc2cnn(C)c(=O)c2Br)C[C@H](c2ccccc2)C1    Criterion met
Cc1c(NC(=O)c2cc(C(N)=O)nc3cc(F)ccc23)c(C(F)(F)F)nn1Cc1ccc(C(C)(C)C)cc1    Criterion met
CO[C@H]1CNC[C@@H](OCC2CCC(F)(F)CC2)[C@@H]1Nc1ncc(-c2cncc(C)c2)c2cc(C)c(=O)[nH]c12    Criterion met

Dear colleague, could you confirm whether Cc1c(NC(=O)c2cc(C(N)=O)nc3cc(F)ccc23)c(C(F)(F)F)nn1Cc1ccc(C#N)cc1 has inhibition at 10 µM at or above 10%?
Criterion met

Dear colleague, could you confirm whether Cc1nnc2c3ccccc3c(N[C@@H](C)[C@H](c3ccccc3)N(C)C)nn12 has inhibition at 10 µM at or above 10%?
Criterion not met
